Target: T1, Human soluble IL6-R (human, UniProt P08887 20-358)
T1 construct: Bought soluble receptor; biotinylated in some Alphascreen assays; also called sIL6-R; hIL-6R
T1 sequence (looked up): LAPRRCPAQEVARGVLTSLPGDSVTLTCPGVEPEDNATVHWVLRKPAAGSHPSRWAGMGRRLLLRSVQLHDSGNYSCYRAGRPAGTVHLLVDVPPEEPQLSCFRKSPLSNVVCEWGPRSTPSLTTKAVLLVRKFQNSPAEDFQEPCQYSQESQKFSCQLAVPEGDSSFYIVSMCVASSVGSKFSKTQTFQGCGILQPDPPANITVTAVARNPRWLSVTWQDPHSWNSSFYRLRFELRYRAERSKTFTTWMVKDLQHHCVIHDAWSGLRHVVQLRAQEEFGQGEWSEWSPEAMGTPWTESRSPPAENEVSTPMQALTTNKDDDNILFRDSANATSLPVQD
Experiment: SPR (Biacore), off-rate
Observed property: koff (s⁻¹)

PMP 34 C11 (VHH) VHH: EVQLVESGGGLVQPGGSLRLSCAAAGFTLDYSAIGWFRQAPGKEREMFSCISGSDGSTWYADSVAGRFTISFDNAKNTVYLQMNSLKPEDTGLYICAVTGGVRGPCAYEYEYWGQGTQVTVSS ... 0.00367

[P] PMP 33 C10 (VHH, also called PMP33C10(t)) VHH: EVQLVESGGGLVQPGGSLRLSCAASGFTFDDYGMSWVRQAPGKGLEWVSAISWNGGSTYYTESMKGRFTISRDNAKNTVYLQMNSLKPEDTAVYYCVKGSTAIVGVPPTYPDEYDYWGQGTQVTVSS
[Q] PMP 34 E9 (VHH, also called PMP34E9(t)) VHH: EVQLVESGGGLVQPGGSLRLSCAASGFTLDYYAIGWFRQAPGKEREGVSCISSSDGSTYYADSVKGRFTISRDNAKNTVYLQMNSLKPEDTAAYYCATDRSVYYCSGDAPEEYYWGQGTQVTVSS
[R] PMP 31 B4 (VHH, also called PMP31B4(t)) VHH: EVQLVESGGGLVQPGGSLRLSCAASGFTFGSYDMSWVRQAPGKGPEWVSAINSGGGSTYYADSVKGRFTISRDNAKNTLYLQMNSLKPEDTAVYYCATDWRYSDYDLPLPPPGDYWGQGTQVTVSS
[S] PMP 28 G3 (VHH) VHH: EVQLVESGGGLVQAGGSLRLSCTASGNIFSTETMGWYRQPPGKQRDVVATITHGGTTNYADSVKGRFTISRDNRKNTVYLQMNSLKPEDTGVYYCNARSSWYSPEYWGQGTQVTVSS
Place the items in sequence of falling koff. Your answer should be the labels, listed in the requested order.
P, S, R, Q
(P: 0.00308 s⁻¹, S: 0.00193 s⁻¹, R: 0.00128 s⁻¹, Q: 0.000503 s⁻¹)
